# System: MDA-MB-468 breast
# Procedure details: NCI-60 one-dose screen, 48 h (100 = growth as untreated, 0 = no growth, -100 = all killed)
# Stated conditions: 10 µM unless noted
About 83,000 compounds went through this panel and 20% of them were active in at least one assay; those are over-represented in the sample as a whole.
Each entry below carries its recorded growth.
The reply should contain only the number, in %.

Illustrative cases are given below, each with its answer.
> print(dat)
                                   molecule  experimental.result
1  COc1cc(N=Nc2cc(S(=O)(=O)O)cc3cc(S(=O)(=O)O)cc(O)c23)c(C)cc1N=Nc1c(S(=O)(=O)O)cc2cc(Nc3ccccc3)ccc2c1O                  115
2  COc1cc(C(=O)/C=C/c2c(C)n([O-])c3ccc(C(F)(F)F)cc3[n+]2=O)cc(OC)c1OC                 36.8
3  COc1ccc(C/C(C)=C(/c2ccc(OCCN3CCCCCC3)cc2)c2ccc(OC(=O)c3ccccc3)cc2)cc1                  111

Tell me its growth given COc1ccc2c(c1)nc(N)c1c3cccnc3cn21 as the entry.
13.4

Consider the molecule CCC(=C(c1ccc(OCCN2CCCC2)cc1)c1ccc(OCCN2CCCC2)cc1)c1ccc(Cl)cc1 . State its measured growth.
-53.5

Indicate its recorded growth; the molecule in question is CCCCNC(=O)Oc1ccc(/C(=C(\C)c2ccccc2)c2ccc(OCCN(CC)CC)cc2)cc1
70.3

Report growth, nothing else, for this molecule: O=C(Cn1nnc([N+](=O)[O-])n1)c1ccccc1
99.2

Tell me growth reported for CCN(C(=O)CN1CCN(c2cc3c(cc2F)c(=O)c(C(=O)O)cn3C2CC2)CC1)c1nc(-c2ccc(OC)cc2)cs1
60.9

Name the recorded growth of the item COc1cc2nc(-c3ccc(C(F)(F)F)cc3)cc(OCCCN3CCCCC3)c2cc1OC in your answer.
52.5

Look up and report measured growth for this entry: CC1=C(C)C(=O)C(Nc2cccc(C(=O)OC(C)(C)C)c2)=C(Cl)C1=O
-23.6

Note down growth recorded for O=[N+]([O-])c1ccc(Cl)c(-c2cc(CCCCO)on2)c1
98.3

Quote growth reported for COc1c(O)c(O)cc2c3c(oc12)CC(c1ccc2c(c1)OCO2)CC3=O (centres undefined) please.
79.9

Kindly indicate its recorded growth. Item: O=C(N/N=C/c1ccc(Cl)cc1)c1ccc(C(F)(F)F)nc1Nc1cccc(C(F)(F)F)c1
16.7
